ASSAY NAME: label from the status in PepcDB records
PROPERTY LABEL: protein production

>  <ORDERED RESIDUES>
MLCLTKKRHGLRIEIPPMPILPARPLKYLLASIIALTAGGPDIAVAQAPDSVISQPGTAPASSFRTDRLPGGDVKPSDGVGVFDRMGAKLPDLPPEKDYKGPIDEAYGAYQRGYYLTAMDKALPRAQLGDPAAQTLIGEILSQGLGVKKDVKGAAFWYGKAAEGGDPAAMFKYALMLMEGQGVPRDKVKADDYMRKAAEAGNPSAEFNWAQIVVADNPGEKGLKLALPFYEKSAEQGIADSQYAVAQIYATLKDLPEEKKRLAREWMARAARAGFDTAELDLGIWLVNGVGGPKDYVKGFEWLKLAANGGNVVAQNKLAHLYINAIGTPPNPVEAAKWYVLSRRAGLADPSLEDFYLGIEDDQQKAAIDAANKFRRR

>  <RECORDED MEASUREMENT>
failed

$$$$
>  <ORDERED RESIDUES>
MNTKRNRLLYATFTILVIILGLSSRKFAFALPALLNDYLGDALWALMIFTGFGFLFPKIATKKLAFISLIFCYGIEVSQLYHAEWIDSIRATTLGGLVLGYGFLWSDLVAYTIGVGIGFLFELILWKK

>  <RECORDED MEASUREMENT>
failed

$$$$

====

ASSAY NAME: label from the status in PepcDB records
PROPERTY LABEL: protein production

Example entries begin here.
>  <ORDERED RESIDUES>
MAGKRKKPKDTDLPPRVYRGKSKYEFHPARGGSISLCPLDAPISQVWSDYEKVNDRLPEKVTLNKLTEQFLHSMDFCELAIETQKDYRKYSLKLLPVFGEMSPDNIRPEHIRKYMDKRGITSRTQANREKTFLSRVYRWGYERGMVKGNPCRGVKQFTEKARDRYITDEEYDAVYQVAPDVVRVAMEIAYLCLARQADVLALRRDQLREPGIYIKQGKTAARQIKAWSERLRDAITLAESLPLKSGISSVYIIHQRTGLRYTRDGFNSKWRKAREVAKKTYPELDFNFTFHDLKAKGVSDLEGTLSEKQAISGHKNMGQTARYDRKIKIVPVVGNQKK

>  <RECORDED MEASUREMENT>
failed

$$$$
>  <ORDERED RESIDUES>
MGKKIITISREYGSGGRQVGLTVAKKLGMEFYDKELIDAAAKEIGFPTEMIADREQRLTNSLLYNFAMGTLYGIAYPREPKVSELPLTEQIYQAQKKAIEEAAKRGSCIFVGRCADYILKSRPDVLRVFIYADRDIRKRRAIEEYGEIEEYIDEFMYQTDKRRRIHYENYTNQKWGSRENYDLMLNSGDLGLDKCVELLCEAVK

>  <RECORDED MEASUREMENT>
not failed

$$$$
>  <ORDERED RESIDUES>
MSYIRLVTWNVDFDSPFNYERFTAIAEEVLGAKPGVVLFQEVSDLPFSSWQGEKEQSTITSARQHDSCYKVLLRRLEALYEPIVDLGLPSEQAYFVMAFVDRSKYRVHGYEYTEFENSSQGRGLLAIQLEPRDMCGDFKFRVLTSHLESGTACSEVRVQQMRQIAYEMLEGDTPAIFAGDTNFREKEKAGFEKEIAKAIGSEEMRLFDLFVEVGEPSHLRFTWDTRTNTNKVKELPPRFRPRARFDQVLFTRPFQANAMRLLGRERLGHAVFPSDHYGIYGELRF

>  <RECORDED MEASUREMENT>
failed

$$$$
>  <ORDERED RESIDUES>
MVRRTRAEMEETRATLLATARKVFSERGYADTSMDDLTAQASLTRGALYHHFGDKKGLLAAVVEQIDAEMDERLQAISDTAEDDWEGFRCRCRAYLEMALEPEIQRIVLRDARAVLGGASPDSQRHCVESMQRLIDNLIRQGVVAEADPQALASLIYGSLAEAAFWIAEGEDGNARLAQGVAALELLLRGLLVKPR

>  <RECORDED MEASUREMENT>
not failed

$$$$
>  <ORDERED RESIDUES>
MQLFHKTVNRRGTHSIKWDTYKNEELIHAWIADMDFEVPQPIQTALKKRIEHPIFGYTLPPENIGDIICNWTKKQYNWDIQKEWIVFSAGIVPALSTSIQAFTKENESVLVQPPIYPPFFEMVTTNNRQLCVSPLQKQNDTYAIDFEHLEKQFQQGVKLMLLCSPHNPIGRVWKKEELTKLGSLCTKYNVIVVADEIHSDIIYADHTHTPFASLSEELAARTITCMAPSKTFNIAGLQASIIIIPNEKLRQAFTSIQYRQGFHGLNIFAYTAMQSAYTECNDWLNEIRFYIEDNAKFACEYIKDHIPTLSVMKPEGSFLLWIDCSALNLSQDERTKLLEEKGKIIVEPGEKYGLGGEEHIGINIGCPRSVLEEILNRLRHTFS

>  <RECORDED MEASUREMENT>
not failed

$$$$

Q: Answer with the recorded protein production of STIIYIKDLNGRYTLVNNKYCEVLGIERRKIIGAMDFELFQPPLAELYQQNDQRANNSHDALHFEEPIPTPRGEIIYHMTKFDIRDDE only.
A: failed

Q: Supply measured protein production of MVNFEEMTFENIMESMLDAVPATLDKREGSMIWNSLAPAASQIALLYTWLENAFELVFYDTAPDEFLDRAAAPYGVIRKPAVATQRIIKGIDENDNKIEIPEGSRFFVESENIYFKVTSSTILEQVVECEVAGTKGNADFSNDTILSLDNIYGLAKVEIGDILIPGSDEEELETFRKRFFTKIQKDAFSGNKNHYKLWAEEVLGVGKAKIYPLGYGEGTVKIVITDTNLHPASPTLVEQVRNYIDPLPQKGEGVAPIGAKVFIESAAWKTINISGQLVLKDGKSVNDVIEEITMDINKLFKSITFPEDELTSVKLAVISNIIFSAPSVLDNFNIKLNNEAANIILAENEVPQLGAFSFELILEHHHHHH in your reply.
A: failed

Q: Fill in protein production for record MCSIGVTALCSPAKFHHRREQSLIFTPTHLRNPNGFQFRWRKSRPFAPRLAQPDNFAPPLPLIRSSTSLLSSKDFVQMLARKAAILLVGSFVFLGFCSSKPALALPTATVVSQAELEDEKMFEKLLENEPENMEAMKAVVYKKMRRGKNEDAVKYVEKLMKLEPHEVEWKLLEALCYETMGELSKAKRLYKDILKEQPLLIRALHGLAMVMHKTHDTSVFDMLIEAMEVARQGNRVTEERNIQVLIGQMHIVEGQFEEGLKIFQQMVNDNPRDFRPYLCQGIVYSLMDKKEEAAQQFEIYWSLVPGEFPQKGFLDDVALAAQAKSRERLQNTFKAKFTQGR
A: failed
